Test system: SNB-75 CNS
Test: NCI-60 one-dose screen, 48 h (100 = growth as untreated, 0 = no growth, -100 = all killed)
Settings: 10 µM unless noted
This is part of a sample that, as a whole, favours compounds with a hit. Of some 83,000 tested, about 20% had one in any assay. Activity calls are given as the source filed them. Rule for the calls: active = growth percent below 10; inactive = the rest.
assay_endpoint: growth

Some solved cases for reference:
| molecule | growth |
| --- | --- |
| Cc1cc(C)cc(CCCCCCCCCCCCCCCCCC(=O)O)c1 | 97.2% (inactive) |
| Cc1ccc(NC(=O)c2[nH]c(SCCN(C)C)nc2-c2ccc(F)cc2)cc1C#Cc1cnc2cccnn12 | -59.7% (active) |
| O=c1[nH]c2cc(Cl)c(Cl)cc2o1 | 92.5% (inactive) |

Supply measured growth of COc1ccc2[nH]c(O)c(/C=c3/ccc4c(c3)N=C(c3ccc(C(F)(F)F)cc3)N=4)c2c1 in your reply.
60.7% (inactive)

Supply measured growth of C#CC[C@@H]1C[C@]2(C)[C@H]3CC[C@@H]4[C@H]5C(C(=C)C)CC[C@]5(C(=O)NCCCN5CCN(CCCN)CC5)CC[C@@]4(C)[C@]3(C)CC[C@H]2C(C)(C)[C@H]1OC(C)=O (stereo partly specified) in your reply.
-95.7% (active)

Supply measured growth of Nc1nc(N)c2c(n1)NC(c1sc(Cl)nc1Cl)CC(c1ccc3c(c1)OCO3)=N2 (stereo unspecified) in your reply.
-1.52% (active)

Supply measured growth of O=C(O)c1ccccc1N=Cc1ccccc1 in your reply.
119% (inactive)

Supply measured growth of Nc1n[nH]c2ccc([C@@H]3Nc4c(F)cc5[nH]ncc5c4[C@H]4C5CCC(C5)[C@@H]34)cc12 (stereo partly specified) in your reply.
7.8% (active)

Supply measured growth of CC1(C)C2CCC(O)(C(=O)O)C1C2 (stereo unspecified) in your reply.
83.4% (inactive)

Supply measured growth of C[C@@H](C[C@H](CC1CC1)c1ccccc1)c1ccc2ccccc2c1 in your reply.
85% (inactive)

Supply measured growth of Cc1n(Cc2ccc3ccccc3n2)cc[n+]1Cc1ccc2ccccc2n1 in your reply.
65.8% (inactive)

Supply measured growth of COc1cccc(OCC(O)CN2CCN(c3ccccc3)CC2)c1 (stereo unspecified) in your reply.
96.5% (inactive)

Supply measured growth of Cc1c(-c2ccc(-c3ccccc3F)cc2)nc2ccc(F)cc2c1C(=O)O in your reply.
60.9% (inactive)

Supply measured growth of N#Cc1nc(-c2ccc(Cl)cc2)cc(-c2ccc(Nc3nc(N4CCCCC4)nc(N4CCCCC4)n3)cc2)c1N in your reply.
81.5% (inactive)

Supply measured growth of COc1ccc(-c2nc(-c3cc(OC)cc(OC)c3)[nH]c2-c2ccc(OC)cc2)cc1 in your reply.
86.1% (inactive)

Supply measured growth of CN(C)CCOc1nc2c3ccncc3cc(-c3cccc(Cl)c3)c2c2cnccc12 in your reply.
39.8% (inactive)

* * *

Listed molecules paired with reported growth
Test system: MALME-3M melanoma
Assay: NCI-60 one-dose screen, 48 h (100 = growth as untreated, 0 = no growth, -100 = all killed)
Conditions: 10 µM unless noted
This is part of a sample that, as a whole, favours compounds with a hit. Of some 83,000 tested, about 20% had one in any assay.
I only need the number, in %, no unit after it.

Some solved cases for reference:
| molecule | target | growth [%] |
| --- | --- | --- |
| Cc1cc(-c2nnc(/C=C/c3ccc4c(c3)OCO4)o2)n[nH]1 | MALME-3M melanoma | 49.4 |
| COc1ccc(-n2nc(C(=O)NCC(=O)Nc3nc4cc(OC)ccc4s3)c3ccccc3c2=O)cc1 | MALME-3M melanoma | -13.8 |
| O=C(c1ccccc1)N(CCCCl)C(=O)N(CCCCl)C(=O)c1ccccc1 | MALME-3M melanoma | 91.8 |

Turning to the following molecule.
Supply measured growth of COC(=O)C(C)NC1=C(Cl)C(=O)C(NC(C)C(=O)OC)=C(Cl)C1=O (stereo not given) in your reply.
72.2

* * *

Test system: SK-MEL-5 melanoma
Test: NCI-60 one-dose screen, 48 h
Details: 10 µM unless noted
This is part of a sample that, as a whole, favours compounds with a hit. Of some 83,000 tested, about 20% had one in any assay. Active and inactive are the calls of the source. The calls were made as follows: active = growth percent below 10; inactive = the rest.
A correct response names exactly one class from 1 (yes) = active, 0 (no) = inactive

| molecule | answer_label |
| --- | --- |
| Brc1ccccc1Cn1c(-c2cncs2)nc2ccccc21 | 0 (no) |
| CCOc1cccc(/C=N/NC(=O)c2ccc(Nc3ccnc(C(F)(F)F)c3)cc2)c1O | 1 (yes) |
| CC(=O)N(C)c1ccc(Nc2cc(C)[nH]c3ccc4ncnc4c23)cc1 | 0 (no) |
| CNCc1ccccc1CN(CC(=O)Nc1ccc2c(c1)CC1(C2)C(=O)Nc2ncccc21)C(=O)C(C)(C)C (stereo not given) | 0 (no) |

Now take the following molecule into account.
Tell me the recorded outcome of this test for N#Cc1nc(-c2cccc(Br)c2)cc(-c2ccc(Nc3nc(N4CCCCC4)nc(N4CCCCC4)n3)cc2)c1N .
1 (yes)

* * *

Listed compounds paired with reported growth
System: HCT-116 colon
Assay: NCI-60 one-dose screen, 48 h (100 = growth as untreated, 0 = no growth, -100 = all killed)
Details: 10 µM unless noted
The panel holds about 83,000 compounds, 20% with a hit somewhere; the sample as a whole holds those more often.
I only need the number, in %, no unit after it.

Some solved cases for reference:
| compound | target | measurement_units | reported |
| --- | --- | --- | --- |
| C1=C\CCCCN2CC[C@H]3[C@H](CCCC/C=C\CCCN4C[C@@H](CCCCC/1)C[C@@H]3C4)C2 | HCT-116 colon | % | 43.6 |
| O=C1C=CC(=O)N1c1cccc(N2C(=O)C=CC2=O)c1 | HCT-116 colon | % | 24.7 |
| NC(=O)c1noc(C(=O)c2ccccc2)c1N | HCT-116 colon | % | 85.4 |
| C#CC[C@@H]1C[C@]2(C)[C@H]3CC[C@@H]4[C@H]5C(C(=C)C)CC[C@]5(C(=O)NCCCN5CCN(CCCN)CC5)CC[C@@]4(C)[C@]3(C)CC[C@H]2C(C)(C)[C@H]1OC(C)=O (stereo partly specified) | HCT-116 colon | % | -95.3 |
| CCN(CC)c1ccc(C(=N)c2ccc(N(C)C)cc2)cc1 | HCT-116 colon | % | 1.67 |

Turning to the following compound.
Lab note: HCT-116 colon assay, enter growth for CCCCCCCCCCC(C(O)c1ccccc1)N1CCCCC1 (stereo unspecified) here
14.7

* * *

Tested on: UO-31 renal
Experiment: NCI-60 one-dose screen, 48 h (100 = growth as untreated, 0 = no growth, -100 = all killed)
Conditions: 10 µM unless noted
Description: Growth inhibition of the UO-31 human tumor cell line is measured as a screen for anti-cancer activity. Cells are grown in 96 well plates and exposed to the test compound for 48 hours. Compounds are tested at a single concentration, which is 10^-5 M for most compounds. The reported endpoint is percent growth (GI% or GIPRCNT), where numbers from 0 - 100% represent growth inhibition, and numbers from -100% - 0 represent cell death. For example, a value of 40 represents 60% growth inhibition. […]
The panel holds about 83,000 compounds, 20% with a hit somewhere; the sample as a whole holds those more often.
Response field class: string, computed from recorded growth by ranges bottom end = under 40%, midrange = from 40% up to 80%, top end = 80% and over

| compound | answer_label |
| --- | --- |
| CCCCCCCCCCC(C(O)c1ccccc1)N1CCCCC1 (stereo not given) | bottom end |
| O=C(/C=C/c1ccccc1)n1c(-c2ccccc2)nc2ccccc21 | top end |
| COc1cccc(Cn2c(-c3nonc3NC(C)=O)nc3ccccc32)c1 | bottom end |
| SCc1ccc(CS)cc1 | top end |
| COc1cc(/C=C2\C(=O)Nc3ccc(N(C)C)cc32)cc(OC)c1OC | bottom end |

Assign a category based on measured growth for CC1=C(O)C(=O)C(c2c(C)cc(C)c(Br)c2C)=C(O)C1=O and give only the class name.
top end

Assign a category based on measured growth for C=C(C)[C@@H]1CC[C@]2(C)[C@H](CC=C3[C@@H]4C[C@](C)(C(=O)N5CCN(C)CC5)CC[C@]4(C)CC[C@]32C)[C@@]1(C)CCC#N and give only the class name.
midrange

Assign a category based on measured growth for O=C1Cc2c([nH]c3ccc([N+](=O)[O-])cc23)-c2ccccc2N1 and give only the class name.
bottom end

Assign a category based on measured growth for COc1ccc(-c2nnc(SCC(=O)Nc3ccc(C(=O)/C=C/c4ccc(Cl)cc4)cc3)n2-c2ccccc2)cc1 and give only the class name.
midrange

Assign a category based on measured growth for CC1C2CCC(C2)C1COCCOCCO (stereo not given) and give only the class name.
top end
